Target: T1, Extracellular domain of cyno PD1 (cPD1-ECD) (Macaca fascicularis (cynomolgus))
T1 construct: Expressed with a hexahistidine tag or as Fc fusion; also called cynoPD1-ECD; cynoPD-1-ECD
T1 chain: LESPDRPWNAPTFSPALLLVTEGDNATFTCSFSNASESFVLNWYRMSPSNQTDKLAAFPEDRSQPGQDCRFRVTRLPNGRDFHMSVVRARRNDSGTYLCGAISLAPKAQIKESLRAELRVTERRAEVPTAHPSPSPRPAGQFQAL
Test: SPR ProteOn, cynoPD1-ECD; RANGE low replicate
# maps each entry to its kon
Field format: number, assumed M⁻¹ s⁻¹, no unit text.

// known answers, use as guide
input: State the recorded kon for this entry: PD1B149 (antibody, human IgG2, kappa, V domains shown, IgG2sigma/kappa; VH 41, VL 50; also called PD1H24/PD1L128) VH: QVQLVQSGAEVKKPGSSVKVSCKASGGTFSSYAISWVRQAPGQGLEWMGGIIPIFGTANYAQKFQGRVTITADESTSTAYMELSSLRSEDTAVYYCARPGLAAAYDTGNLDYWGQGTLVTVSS VL: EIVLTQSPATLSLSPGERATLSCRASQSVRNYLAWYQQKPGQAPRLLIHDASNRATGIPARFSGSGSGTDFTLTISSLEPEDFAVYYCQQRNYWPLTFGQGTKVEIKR
output: 304000

input: State the recorded kon for this entry: PD1B187 (antibody, V domains shown, Tested as IgG2sigma; also called PD1H3/PD1L148) VH: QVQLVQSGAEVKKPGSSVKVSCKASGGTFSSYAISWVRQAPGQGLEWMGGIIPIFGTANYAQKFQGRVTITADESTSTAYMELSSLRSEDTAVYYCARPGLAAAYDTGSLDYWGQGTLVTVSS VL: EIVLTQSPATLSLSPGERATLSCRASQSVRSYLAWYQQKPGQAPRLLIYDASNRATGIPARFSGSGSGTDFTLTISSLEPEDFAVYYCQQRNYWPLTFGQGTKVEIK
output: 220000

Please examine the following record next.
input: State the recorded kon for this entry: PD1B177 (antibody, V domains shown, Tested as IgG2sigma; also called PD1H164/PH9L3) VH: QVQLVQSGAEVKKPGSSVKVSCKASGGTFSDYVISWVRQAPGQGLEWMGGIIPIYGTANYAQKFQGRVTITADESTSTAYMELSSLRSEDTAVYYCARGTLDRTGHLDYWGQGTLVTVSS VL: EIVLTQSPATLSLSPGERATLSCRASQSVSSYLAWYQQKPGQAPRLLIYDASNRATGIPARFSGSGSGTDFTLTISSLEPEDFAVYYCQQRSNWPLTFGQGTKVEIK
output: 280000
